Hey, just so you know, these numbers are from patent US20140112915A1.

# IC50, inhibition of IFN-γ release, human whole blood, LPS/IL-12 (native IL-18) per entry
# subject.of.test: T1, Native human IL-18 (human, UniProt Q14116 37-193)
# T1 sequence: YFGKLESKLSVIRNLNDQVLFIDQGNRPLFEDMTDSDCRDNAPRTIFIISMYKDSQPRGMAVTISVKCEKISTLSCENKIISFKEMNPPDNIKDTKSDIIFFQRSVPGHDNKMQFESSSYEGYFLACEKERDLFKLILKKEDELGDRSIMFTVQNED
# procedure.details: cell-based or functional assay
Write the number in nM without appending the unit.

Known IC50, inhibition of IFN-γ release, human whole blood, LPS/IL-12 (native IL-18) results, listed for orientation:
[[record]]
binder = "MOR10579 (antibody, human IgG1, lambda, L234A L235A, V domains shown) VH: EVQLVQSGAEVKKPGSSVKVSCKASGGTFNSYAISWVRQAPGQGLEWMGWINPFYIGETFYAQKFQGRVTITADESTSTAYMELSSLRSEDTAVYYCARAAYHPLVFDNWGQGTLVTVSS VL: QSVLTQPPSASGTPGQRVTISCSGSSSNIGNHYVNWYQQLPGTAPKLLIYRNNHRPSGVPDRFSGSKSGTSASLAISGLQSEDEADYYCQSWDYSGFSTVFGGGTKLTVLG"
unit_abbreviation = "nM"
assay_value = 16.7

[[record]]
binder = "MOR10222_E1Q_N30S_M54N (antibody, human IgG1, lambda, L234A L235A, V domains shown) VH: QVQLVQSGAEVKKPGSSVKVSCKASGGTFSSYAISWVRQAPGQGLEWMGNIIPNTGQTYYAQKFQGRVTITADESTSTAYMELSSLRSEDTAVYYCARAAYHPLVFDNWGQGTLVTVSS VL: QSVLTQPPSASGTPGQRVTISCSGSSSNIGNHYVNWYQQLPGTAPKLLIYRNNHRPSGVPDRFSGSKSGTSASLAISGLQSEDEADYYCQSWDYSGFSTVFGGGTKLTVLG"
unit_abbreviation = "nM"
assay_value = 16.1


In the following, a different binder is considered.
Consider the binder shown here: MOR10502 (antibody, human IgG1, lambda, L234A L235A, V domains shown, also called MOR010502) VH: EVQLQESGPGLVKPGETLSLTCTVSGGSISTGSYYWNWIRQAPGKGLEWIGEIHGHGFTFYNPSLKSRVTISVDTSKNQFSLKLSSVTAADTAVYYCARTTRYWMSHILAYGMDYWGQGTLVTVSS VL: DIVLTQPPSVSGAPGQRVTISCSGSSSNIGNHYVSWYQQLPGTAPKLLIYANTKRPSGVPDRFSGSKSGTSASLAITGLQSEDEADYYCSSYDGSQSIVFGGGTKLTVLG What is its recorded IC50, inhibition of IFN-γ release, human whole blood, LPS/IL-12 (native IL-18)?
110
